Below, each of the molecules is paired with its reported %Inh value.
system: JNK2; construct: gene MAPK9; details: concentration: 1 μM, replicates: in singlicate; n = 1;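 further: KINOMEscan kinase panel screen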
MEASUREMENT_TYPE: %Inh (%)

smiles_input=C[C@@H](Oc1cc(-n2cnc3cc(-c4ccnc(NCCS(C)(=O)=O)c4)ccc32)sc1C(N)=O)c1ccccc1Cl measurement_type=%Inh unit_descriptor=% endpoint_value=10
smiles_input=CN(c1ccc(NC(=O)Nc2cc(C(F)(F)F)ccc2F)cc1)c1ccnc(Nc2ccc(S(N)(=O)=O)cc2)n1 measurement_type=%Inh unit_descriptor=% endpoint_value=51
smiles_input=CCn1c(-c2nonc2N)nc2c(C#CC(C)(C)O)ncc(OCCCCN)c21.O=C(O)C(F)(F)F.O=C(O)C(F)(F)F measurement_type=%Inh unit_descriptor=% endpoint_value=10
smiles_input=CCn1c(-c2nonc2N)nc2c(C#CC(C)(C)O)nc(OC[C@H](N)c3ccccc3)cc21 measurement_type=%Inh unit_descriptor=% endpoint_value=0

---

test system: BRSK1; details: concentration: 1 μM, replicates: in singlicate; n = 1
Below, each of the compounds is paired with its reported %Inh value.
MEASUREMENT_TYPE: %Inh (%)

compound="CSc1cccc2c(-c3ccncn3)c(-c3ccc(F)cc3)nn12 [GW514786]" unit_descriptor=% endpoint_value=14
compound=O=C(Nc1cccc(Oc2ccc3nc(NC(=O)C4CC4)cn3n2)c1)c1ccccc1C(F)(F)F unit_descriptor=% endpoint_value=6
compound="O=C(Nc1cccc(-c2nn3ncccc3c2-c2ccnc(Nc3ccccc3)n2)c1)c1c(F)cccc1F [GSK198271]" unit_descriptor=% endpoint_value=4
compound="Nc1n[nH]c2cnc(-c3ccccc3)cc12 [SB-642124]" unit_descriptor=% endpoint_value=13
compound="CN(C)Cc1ccc(-c2ccc3c(Nc4ccc(Oc5ccccn5)cc4)ccnc3c2)o1 [GW567148]" unit_descriptor=% endpoint_value=0
compound="CNC(=O)c1ccccc1Nc1nc(Nc2ccc(N3CCOCC3)cc2)ncc1Cl.Cl [GSK1576028]" unit_descriptor=% endpoint_value=78
compound="Cc1ccc(C)c(NC(=O)NC2CCN(c3ccnc(Nc4ccc(F)cc4)n3)C2)c1 (stereo not drawn) [GSK1379720]" unit_descriptor=% endpoint_value=0
compound="Cn1cc(-c2ccc3c(c2)CCN3C(=O)Cc2cccc(Cl)c2)c2c(N)ncnc21 [GSK2606590]" unit_descriptor=% endpoint_value=7
compound="COc1cc(Nc2nccc(-c3c(-c4cccc(NC(=O)c5c(F)cccc5F)c4)nn4ccccc34)n2)cc(OC)c1OC [GSK323521]" unit_descriptor=% endpoint_value=8

---

system: EGFR; settings: concentration: 1 μM, replicates: in singlicate; n = 1
MEASUREMENT_TYPE: %Inh

smiles_input=FC(F)(F)c1ccc(/C=C/c2cncnc2Nc2ccc3[nH]c(Cc4ccccc4)nc3c2)cc1 target_entity=EGFR endpoint_value=46%
smiles_input=O=C(Nc1cccc(-c2nn3ccccc3c2-c2ccnc(Nc3cccc(C(F)(F)F)c3)n2)c1)c1c(F)cccc1F target_entity=EGFR endpoint_value=98.2%
smiles_input=COc1cc(Nc2nccc(-c3c(-c4cccc(NC(=O)c5c(F)cccc5F)c4)nn4ccccc34)n2)cc(OC)c1OC target_entity=EGFR endpoint_value=38%
smiles_input=COc1cc2c(cc1OCCN1CCNCC1)ncc1c3ccc(C#N)cc3[nH]c21 target_entity=EGFR endpoint_value=26%
smiles_input=O=C(Nc1cccc(-c2nn3ncccc3c2-c2ccnc(Nc3ccccc3)n2)c1)c1c(F)cccc1F target_entity=EGFR endpoint_value=100%
smiles_input=O=C(Nc1cccc(-c2nn3ccccc3c2-c2ccnc(Nc3cccc(F)c3)n2)c1)c1c(F)ccc(F)c1Cl target_entity=EGFR endpoint_value=100%
smiles_input=C[C@@H]1CC[C@@H](C(=O)Nc2ccccc2)CN1c1cc(-c2ccc3c(N)n[nH]c3c2)nc(N)n1 target_entity=EGFR endpoint_value=43%

Each recorded value in this set is attributed to paper PMC5540273.
